Biological target: hM5 mAChR (Homo sapiens)
Construct: expressed in transfected cells; host or cells: CHO-K1 (membrane preparation)
Sequence (P08912 1-532): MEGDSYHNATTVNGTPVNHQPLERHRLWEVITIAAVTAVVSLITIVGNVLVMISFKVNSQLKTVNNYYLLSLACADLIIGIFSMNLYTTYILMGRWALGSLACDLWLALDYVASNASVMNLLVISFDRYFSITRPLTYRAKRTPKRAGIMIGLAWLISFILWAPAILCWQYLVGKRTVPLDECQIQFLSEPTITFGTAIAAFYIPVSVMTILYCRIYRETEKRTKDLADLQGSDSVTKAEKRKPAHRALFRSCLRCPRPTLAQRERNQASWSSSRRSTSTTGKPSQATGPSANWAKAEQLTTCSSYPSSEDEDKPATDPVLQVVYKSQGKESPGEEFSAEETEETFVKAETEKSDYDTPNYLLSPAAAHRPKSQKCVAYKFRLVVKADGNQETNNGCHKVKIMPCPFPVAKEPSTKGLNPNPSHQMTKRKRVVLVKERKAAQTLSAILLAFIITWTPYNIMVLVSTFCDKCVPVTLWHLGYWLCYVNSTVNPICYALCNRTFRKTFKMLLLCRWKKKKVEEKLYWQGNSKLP
Assay: [3H]NMS inhibition radioligand binding, hM5 in CHO-K1 cell membranes
Settings: [3H]NMS, CHO-K1 cell membranes; mean ± S.E.M.
measure-name: pKi hM5

molecule	tgt	measure-name	measured-number
C[N+](C)(C)C[C@@H]1CO[C@@H](c2ccccc2)[C@@H](c2ccccc2)O1.[I-] (relative stereo) [18c]	hM5 mAChR (Homo sapiens)	pKi hM5	6.21
C[N+](C)(C)C[C@@H]1CO[C@@H](c2ccc([S+]([O-])c3ccccc3)cc2)CO1.[I-] (relative stereo) [16b]	hM5 mAChR (Homo sapiens)	pKi hM5	5.72
C[N+](C)(C)C[C@@H]1COC[C@@H](c2ccc([S+]([O-])c3ccccc3)cc2)O1.[I-] (relative stereo)	hM5 mAChR (Homo sapiens)	pKi hM5	5.74
C[N+](C)(C)C[C@@H]1CO[C@@](c2ccccc2)(C2CCCCC2)CO1.[I-] (relative stereo) [11a]	hM5 mAChR (Homo sapiens)	pKi hM5	7.45
C[N+](C)(C)C[C@@H]1CO[C@@H](c2ccc(Sc3ccccc3)cc2)CO1.[I-] (relative stereo) [15b]	hM5 mAChR (Homo sapiens)	pKi hM5	5.40
